assay: NCI Yeast Anticancer Drug Screen. Data for the cln2 rad14 strain (AID 165);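 also: 0% = growth equal to vehicle treated cultures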; conditions: S. cerevisiae cln2 rad14 strain, at 50.0 µM, stronger effect = higher value
The panel holds about 79,000 compounds, 15% with a hit somewhere; the sample as a whole holds those more often. Where a SMILES comes first, the peptide text is derived from it. [ ]: non-standard residue; d: D form. The star is where a group is joined. ξ: configuration not given here. ξF = NC(Cc1ccccc1)C(=O)O; Cbz = O=C(OCc1ccccc1)*
readout_type: growth inhibition (%)
Give the value in % but do not write % after it.

Give me measured growth inhibition, please, for this molecule: "CC(=O)N(C(C)=O)n1c(Cc2ccc(C)cc2)nn(C(C)=O)c1=O"
13.3

Give me measured growth inhibition, please, for this molecule: "ClCCCc1ccccc1C1=NCCc2ccccc21"
3.25

Give me measured growth inhibition, please, for this molecule: "O=C(O)CCc1nc2ccccc2c(=O)n1Cc1ccccc1"
-6.1

Give me measured growth inhibition, please, for this molecule: CC(=O)NCC(O)c1ccc([N+](=O)[O-])cc1 (stereo not given)
7

Give me measured growth inhibition, please, for this molecule: "O=C(/C(=C\c1ccccc1)c1ccccc1)c1ccccc1"
-75.2

Give me measured growth inhibition, please, for this molecule: CC(C)C(NCc1c(O)ccc2c(-c3ccccc3)cc(=O)oc12)C(=O)O (stereo not given)
-12.2

Give me measured growth inhibition, please, for this molecule: CCOC(=O)CNC(=O)C(Cc1ccccc1)NC(=O)OCc1ccccc1 (stereo not given) (Cbz-[ξF]-Gly-OEt)
-4.75

Give me measured growth inhibition, please, for this molecule: BrC1(Br)C2COCOCC21 (stereo not given)
0.55

Give me measured growth inhibition, please, for this molecule: "CCCCCCCCCCCCS(=O)(=O)N/N=C(\c1ccccc1Cl)N1CCOCC1"
48.2

Give me measured growth inhibition, please, for this molecule: CCC(C)OC(=O)/C=C/c1ccccc1 (stereo not given)
-0.25

Give me measured growth inhibition, please, for this molecule: "Cn1c(=O)c2[nH]c(CC3=CCCCC3)nc2n(C)c1=O"
-8.35

Give me measured growth inhibition, please, for this molecule: "CN(C)C(=S)OCC(C)(C)C"
-35.3

Give me measured growth inhibition, please, for this molecule: CCC(=O)C(CC)c1ccccc1OC (stereo not given)
16.5

Give me measured growth inhibition, please, for this molecule: COC(=O)C(NC(=O)c1ccccc1)C(c1c(O)cc(O)cc1O)P(=O)(OC)OC (stereo not given)
3.35

Give me measured growth inhibition, please, for this molecule: "O=S(=O)(Nc1ccccc1Cl)c1ccc(F)cc1"
4.7

Give me measured growth inhibition, please, for this molecule: "N#Cc1ccc(/C=C2\Cc3ccccc3C2=O)cc1"
9.5

Give me measured growth inhibition, please, for this molecule: O=C(Cc1ccccc1)NN1C(=O)C(Cl)C1c1ccc(O)cc1 (stereo not given)
3.7

Give me measured growth inhibition, please, for this molecule: "CNc1nc(NC)nc(-c2ccccc2)n1"
-55

Give me measured growth inhibition, please, for this molecule: "CC(C)CCC(=S)N1CCN(c2ccccc2)CC1"
-45.1

Give me measured growth inhibition, please, for this molecule: O=C(NC1C=Nc2ccc([N+](=O)[O-])cc2NC1=O)c1ccc(Cl)cc1 (stereo not given)
-18

Give me measured growth inhibition, please, for this molecule: "CCCCNc1cccc2ccccc12"
-43.5

Give me measured growth inhibition, please, for this molecule: O=C1Nc2ccc(Br)cc2C1(O)Cc1cccc([N+](=O)[O-])c1 (stereo not given)
3.55

Give me measured growth inhibition, please, for this molecule: "Cc1ccc(S(=O)(=O)N(c2c(F)cc(C#N)cc2F)S(=O)(=O)c2ccc(C)cc2)cc1"
30.1

Give me measured growth inhibition, please, for this molecule: "O=S(=O)(Nc1nc2ccccc2nc1N1CCCCCC1)c1ccccc1"
4.7

Give me measured growth inhibition, please, for this molecule: "ClCCCCCc1c2nc(c(CCCCCCl)c3ccc([nH]3)c(CCCCCCl)c3ccc([nH]3)c(CCCCCCl)c3nc1C=C3)C=C2"
3.75

Give me measured growth inhibition, please, for this molecule: "Cc1c(Br)c(C)[n+]([O-])n1O"
-17

Give me measured growth inhibition, please, for this molecule: CC1(S)CCC2CC1C2(C)C (stereo not given)
4.95

Give me measured growth inhibition, please, for this molecule: CSCCC(NC(=O)NS(=O)(=O)c1ccc(C)cc1)C(=O)O (stereo not given)
20.2

Give me measured growth inhibition, please, for this molecule: "Cc1cc(=S)cc(C)[nH]1"
2.1

Give me measured growth inhibition, please, for this molecule: CCCCN(CCCC)CC(O)c1cc(OC)c2cc(Cl)cc(Cl)c2n1 (stereo not given)
99.3

Give me measured growth inhibition, please, for this molecule: "O=C(Nc1ccccc1Cl)Oc1ccc(Cl)cc1Cc1ccccc1"
99.7

Give me measured growth inhibition, please, for this molecule: CCOC(=O)N1CCC2C(=C(C)C(C)C3=C2C(=O)c2ccccc2C3=O)C1 (stereo not given)
16.9

Give me measured growth inhibition, please, for this molecule: "CCc1c(C)c2cc(N)ccc2[nH]c1=O"
-23.7

Give me measured growth inhibition, please, for this molecule: CC(CS(=O)(=O)Cc1ccccc1)C(N)=O (stereo not given)
30.1

Give me measured growth inhibition, please, for this molecule: "C[N+]1(C)CC=C(N2CCOCC2)CC1"
-30

Give me measured growth inhibition, please, for this molecule: "Cc1nc2c(c(-c3ccccc3)n1)Cc1ccccc1O2"
-10.5

Give me measured growth inhibition, please, for this molecule: "COc1ccccc1NC(=O)Nc1ccc(Nc2ccccc2)cc1"
90.3

Give me measured growth inhibition, please, for this molecule: "C=CCc1ccc(OC(=O)Nc2ccc(S(=O)(=O)NC3CCCCC3)cc2)c(OC)c1"
33.1

Give me measured growth inhibition, please, for this molecule: "CCCCCN1C(=O)N=NC1=S"
2.7

Give me measured growth inhibition, please, for this molecule: "Cc1cc2c(CC(=O)O)[nH]nc2c(C(=O)O)c1C"
4.8

Give me measured growth inhibition, please, for this molecule: "Cc1cc(C)n2ncc(Br)c2n1"
-35

Give me measured growth inhibition, please, for this molecule: "N=c1nnc2ccc(Cl)cc2n1O"
9.65

Give me measured growth inhibition, please, for this molecule: "c1ccc(Cc2cc(-c3cc(Cc4ccccc4)[nH]n3)n[nH]2)cc1"
19.2

Give me measured growth inhibition, please, for this molecule: "c1ccc2c(c1)c1c(n2CCOCCN2CCCCC2)CCCC1"
28.1

Give me measured growth inhibition, please, for this molecule: CCCCOC(=O)C(C)OP(=O)(OC(C)C(=O)OCCCC)OC(C)C(=O)OCCCC (stereo not given)
-26.1

Give me measured growth inhibition, please, for this molecule: "Oc1ccccc1C=Nc1ccc2c(ccc3c4ccccc4ccc23)c1"
-6.65

Give me measured growth inhibition, please, for this molecule: "CC(C)=Nn1cnc2nccnc2c1=O"
-40

Give me measured growth inhibition, please, for this molecule: "CCON=C(c1ccc(Cl)cc1)c1ccc(Cl)cc1"
16.8

Give me measured growth inhibition, please, for this molecule: "O=S1(=O)OCCOS(=O)(=O)C1I"
11.3

Give me measured growth inhibition, please, for this molecule: O=C(O)C(NCCNC(C(=O)O)c1ccccc1)c1ccccc1 (stereo not given)
38.6

Source of measurements: PubChem BioAssay (NCI)
